Reference for the values: the MegaScale stability set (Tsuboyama et al. 2023)

B1: HEEH_KT_rd6_0007 (parent)
chain: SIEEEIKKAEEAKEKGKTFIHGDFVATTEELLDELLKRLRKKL

Variants of: B1
Assay: folding stability dG (cDNA display proteolysis); higher = more stable
Details: PBS, room temperature
Recorded folding stability dG values for a group of variants are listed next.
State just the number; it will be interpreted in kcal/mol.

[ask] For the variant E5R , give its measured folding stability dG value.
[reply] 1.09
